Tested on: SF-539 CNS
assay summary: NCI-60 one-dose screen, 48 h (100 = growth as untreated, 0 = no growth, -100 = all killed)
conditions: 10 µM unless noted
About 83,000 compounds went through this panel and 20% of them were active in at least one assay; those are over-represented in the sample as a whole.
measured quantity: growth (%)

>>> meas_value("COc1ccc2c(=O)c(OC)c(-c3cc(OC)c(OC)c(OC)c3)oc2c1")
91.5
>>> meas_value("CC(=O)OCC(=O)[C@@]1(O)CC[C@H]2[C@@H]3CCC4=CC(=O)CC[C@]4(C)[C@@]3(F)[C@@H](O)C[C@@]21C")
90.8
>>> meas_value("O=C(/C=C/c1cccc(Nc2ccnc3cc(Cl)ccc23)c1)c1ccc(Cl)cc1")
62.5

* * *

Test system: OVCAR-4 ovarian
assay summary: NCI-60 one-dose screen, 48 h
conditions: 10 µM unless noted
This is part of a sample that, as a whole, favours compounds with a hit. Of some 83,000 tested, about 20% had one in any assay. Active and inactive are the calls of the source. The calls were made as follows: active = growth percent below 10; inactive = the rest.
Outcome codes: True (active), False (inactive)

>>> classification("COc1cc(OC)c2c(c1Cl)O[C@]1(C2=O)C(OCc2ccccc2)=CC(=O)C[C@H]1C")
"False"
>>> classification("COc1cc(NC(C)CCCN)c2nc(C)ccc2c1Oc1ccc(F)cc1 (stereo not drawn)")
"False"
>>> classification("Cc1cc(C(=O)Nc2ccc3cc(CN4CCOCC4)ccc3n2)c(C)n1-c1ccccc1")
"True"
>>> classification("COC(=O)[C@H](Cc1cnc[nH]1)NC(=O)[C@@H](NC(=O)Nc1cc(C(F)(F)F)cc(C(F)(F)F)c1)C(C)C")
"True"
>>> classification("O=C1NC(=S)S/C1=C\\c1cc(Br)ccc1O")
"False"
>>> classification("Cc1ccc2nc(SCC(=O)Nc3ccc(-c4nc5ccccc5s4)c(Cl)c3)[nH]c2c1")
"False"
>>> classification("CCSc1nc(-c2cccs2)n2nc(-c3ccco3)cc2n1")
"False"
>>> classification("O=C(Nc1ccccc1)P(=O)(O)c1ccccc1")
"False"
>>> classification("O=C(O)C1C(c2ccccc2)c2ccccc2C(O)C1CO (stereo not drawn)")
"False"
>>> classification("CCN(Cc1cccc(S(=O)(=O)[O-])c1)c1ccc(C(=C2C=CC(=[N+](CC)Cc3cccc(S(=O)(=O)O)c3)C=C2)c2ccccc2S(=O)(=O)O)cc1")
"False"
>>> classification("C/C(=C\\CCc1ccoc1)CC/C=C(\\C)CCCC1COC(=O)C1 (stereo not drawn)")
"False"
>>> classification("COc1ccc(C(=O)COc2cccc(/C=C3\\CSc4ccc(Cl)cc4C3=O)c2)cc1")
"False"
>>> classification("COc1ccc(Oc2ccccc2NC(=O)CNC(=O)c2cccc3ccccc23)cc1")
"False"
>>> classification("N#Cc1c(-c2ccccc2)cc(-c2ccccc2)n(CCCCC(=O)O)c1=O")
"False"
>>> classification("CCOC(=O)Nc1ccc2c3c(cccc13)-c1ccccc1-2")
"False"
>>> classification("CCOC(=O)c1cc2oc(/C=C/c3cc(=O)c4cc(Cl)ccc4o3)cc2[nH]1")
"False"
>>> classification("CC(C)=CCCC(C)c1ccc(C)c2c1OCN(CC1CCNCC1)C2 (stereo not drawn)")
"False"
>>> classification("COC(=O)[C@H](Cc1cn(C)cn1)NC(=O)[C@H](C)NC(=O)Nc1cc(C(F)(F)F)cc(C(F)(F)F)c1")
"True"
>>> classification("O=c1oc2c(cc1-c1ccc([N+](=O)[O-])cc1)C(O)Oc1ccccc1-2 (stereo not drawn)")
"False"
>>> classification("CC(C)Sc1nc(Cl)c(C#N)c(-c2ccc(F)cc2)n1")
"False"
>>> classification("COc1cc(-c2nc3sc4c(c3c(=O)[nH]2)CCCCCC4)cc(OC)c1OC")
"False"
>>> classification("COc1ccc2c(c1)c(CC(=O)[Se]C)c(C)n2C(=O)c1ccc(Cl)cc1")
"False"
>>> classification("COc1cccc2c1C(=O)c1c(O)c3c(c(O)c1C2=O)C[C@@](O)(C(C)=O)C[C@@H]3O[C@H]1C[C@H](N)[C@H](O)[C@H](C)O1")
"True"
